molecular target: tumor necrosis factor alpha (TNFα) (human, UniProt P01375 77-233); assay: cell-based or functional assay
Sequence (P01375 77-233 limits assumed): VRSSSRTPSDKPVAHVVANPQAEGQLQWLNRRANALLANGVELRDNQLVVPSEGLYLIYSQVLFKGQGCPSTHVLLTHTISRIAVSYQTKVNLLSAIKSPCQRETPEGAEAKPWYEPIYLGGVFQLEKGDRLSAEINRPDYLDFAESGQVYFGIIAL
PROPERTY NAME: IC50, TNFα cytotoxicity assay (WEHI-13VAR cells) (nM)
Give bare numbers, in nM.

Provide IC50, TNFα cytotoxicity assay (WEHI-13VAR cells) for all items below, preserving their order.
1. MAb 695 (antibody, V domains shown, also called 121 D11; H1192/L250) VH: EVQLLESGGGLIQPGGSLRLSCAASGFTVSSNYMSWVRQAPGKGLEWVSVIYSGGRTYYADSVKGRFTISRDSSKNTLYLQMNSLRAEDTAVYYCARNYYGSTYDYWGQGTLVTVSS VL: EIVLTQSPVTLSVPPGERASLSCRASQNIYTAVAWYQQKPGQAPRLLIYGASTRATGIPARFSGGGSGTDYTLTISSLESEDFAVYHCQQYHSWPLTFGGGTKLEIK
2. MAb 1775 (antibody, V domains shown, IgG1/kappa, CHO; also called H1687/L332) VH: EVQLVESGGGLIQPGGSLRLSCAVSGLNVSRDYMSWVRQAPGKGLEWISVIYRGGATMYADSVKGRFTISRDTSKNTVFLQMSRLKVADTAVYYCARNYYGSTMDYWGQGTLVTVSS VL: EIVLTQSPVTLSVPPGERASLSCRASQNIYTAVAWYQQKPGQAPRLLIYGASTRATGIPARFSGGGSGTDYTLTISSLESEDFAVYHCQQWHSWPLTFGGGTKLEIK

22.9
6.5
